systemTested: human recombinant BACE1 (Homo sapiens (Human), UniProt P56817)
Sequence (P56817 46-501): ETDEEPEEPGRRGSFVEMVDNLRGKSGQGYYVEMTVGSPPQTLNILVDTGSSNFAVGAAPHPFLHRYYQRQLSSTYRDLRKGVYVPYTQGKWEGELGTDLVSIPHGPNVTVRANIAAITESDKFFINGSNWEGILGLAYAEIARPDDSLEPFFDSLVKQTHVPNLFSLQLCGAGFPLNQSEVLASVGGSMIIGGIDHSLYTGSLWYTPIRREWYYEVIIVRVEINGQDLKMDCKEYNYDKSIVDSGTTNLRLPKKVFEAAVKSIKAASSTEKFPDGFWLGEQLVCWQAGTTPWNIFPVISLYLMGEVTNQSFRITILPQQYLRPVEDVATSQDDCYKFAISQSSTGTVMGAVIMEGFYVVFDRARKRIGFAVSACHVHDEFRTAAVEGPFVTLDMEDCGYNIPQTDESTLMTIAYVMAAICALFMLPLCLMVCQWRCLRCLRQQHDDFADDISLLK
protocolDescription: In vitro enzymatic BACE1 FRET assay
assayConditions: read-out: BACE1 Enzyme IC50
pIC50: −log10 of the molar value.
Parameter threshold = 8. Response is True when pIC50 meets or exceeds it, else False.

structure | systemTested | qualitativeLabel
N#Cc1ccc(/C(F)=C/c2ccc(F)c([C@@]34CO[C@@H](C(F)F)[C@@H]3CSC(N)=N4)c2)nc1 | human recombinant BACE1 (Homo sapiens (Human), UniProt P56817) | False
N#Cc1ccc(/C(F)=C/c2ccc(F)c([C@@]34CO[C@@H](C(F)(F)F)[C@@H]3CSC(N)=N4)c2)nc1 | human recombinant BACE1 (Homo sapiens (Human), UniProt P56817) | False
C#CCOc1cnc(/C(F)=C/c2ccc(F)c([C@]34CN(C(=O)OC(C)C)C[C@H]3CSC(N)=N4)c2)cn1 | human recombinant BACE1 (Homo sapiens (Human), UniProt P56817) | True
COc1nc(N2C[C@H]3CSC(N)=N[C@@]3(c3cc(/C=C(\F)c4ccc(C#N)cn4)ccc3F)C2)ncc1F | human recombinant BACE1 (Homo sapiens (Human), UniProt P56817) | True
C#CCOc1cnc(/C(F)=C/c2ccc(F)c([C@]34CO[C@H](C(F)(F)F)[C@H]3CSC(N)=N4)c2)cn1 | human recombinant BACE1 (Homo sapiens (Human), UniProt P56817) | False
C#CCOc1cnc(/C(F)=C/c2ccc(F)c([C@]34CN(c5ncccn5)C[C@H]3CSC(N)=N4)c2)cn1 | human recombinant BACE1 (Homo sapiens (Human), UniProt P56817) | True
N#Cc1ccc(/C(F)=C/c2ccc(F)c([C@]34CN(c5ncc(F)cn5)C[C@H]3CSC(N)=N4)c2)nc1 | human recombinant BACE1 (Homo sapiens (Human), UniProt P56817) | True
NC1=N[C@@]2(c3cc(/C=C(\F)c4ccc(Cl)cn4)ccc3F)CN(c3ncc(F)cn3)C[C@H]2CS1 | human recombinant BACE1 (Homo sapiens (Human), UniProt P56817) | True

[ask] Form field: pIC50 at least 8? Entry: C#CCOc1cnc(/C(F)=C/c2ccc(F)c([C@]34CN(C(=O)OC)C[C@H]3CSC(N)=N4)c2)cn1
[reply] True

* * *

systemTested: human recombinant BACE1 (Homo sapiens (Human))
protocolDescription: In vitro enzymatic BACE1 FRET assay
assayConditions: read-out: BACE1 Enzyme IC50
pIC50: −log10 of the molar value.
Parameter threshold = 8. Response is Fulfilled when pIC50 meets or exceeds it, else Not fulfilled.

# count of solved cases: 6
compound | systemTested | qualitativeLabel
Cc1noc(COc2cnc(/C(F)=C/c3ccc(F)c([C@]45CN(c6ncc(F)cn6)C[C@H]4CSC(N)=N5)c3)cn2)n1 (stereo in doubt) [Example 110] | human recombinant BACE1 (Homo sapiens (Human)) | Fulfilled
COc1nc(N2C[C@H]3CSC(N)=N[C@@]3(c3cc(/C=C(\F)c4ccc(C#N)cn4)ccc3F)C2)nc(C)c1F [Example 130] | human recombinant BACE1 (Homo sapiens (Human)) | Fulfilled
C#C[C@H](C)Oc1cnc(/C(F)=C/c2ccc(F)c([C@]34CN(c5ncc(F)cn5)C[C@H]3CSC(N)=N4)c2)cn1 [Example 115] | human recombinant BACE1 (Homo sapiens (Human)) | Fulfilled
NC1=N[C@@]2(c3cc(/C=C(\F)c4cnc(OCC(F)F)cn4)ccc3F)CN(c3ncc(F)cn3)C[C@H]2CS1 [Example 113] | human recombinant BACE1 (Homo sapiens (Human)) | Not fulfilled
N#Cc1ccc(/C(F)=C/c2ccc(F)c([C@@]34CO[C@@H](CF)[C@@H]3CSC(N)=N4)c2)nc1 [Example 133] | human recombinant BACE1 (Homo sapiens (Human)) | Not fulfilled
N#Cc1ccc(/C(F)=C/c2ccc(F)c([C@@]34COC[C@@H]3CSC(N)=N4)c2)nc1 [Example 106] | human recombinant BACE1 (Homo sapiens (Human)) | Not fulfilled

--- query ---
[ask] Form field: pIC50 at least 8? Entry: Cc1cc(C#N)cnc1/C(F)=C/c1ccc(F)c([C@]23CO[C@H](C(F)(F)F)[C@H]2CSC(N)=N3)c1 [Example 138]
[reply] Not fulfilled
